PROTOCOL_DESCRIPTION: chemical genetic growth profiling, strain panel (AID 1159580);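 also: tested at 20 µM; growth read once vehicle control cultures reached saturation at 30 °C; 1 = growth at the plate median or of vehicle wells; lower values mean less growth of the strain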
CONDITION_NOTES: S. cerevisiae deletion strains, growth OD, locus YLL001W, strain dnm1, stronger effect = lower value
The campaign covered roughly 5,500 compounds. About 2,000 (36%) were called active. Inconclusive results (about 18%) are left out. This is one part of the list.
The following molecules are shown together with reported normalized growth values.
Answer with a number only.

>>> quantitative_readout("CCCOc1ccc2nc(NC(=O)OC)[nH]c2c1")
1.01
>>> quantitative_readout("Cc1cc(=O)oc2cc(O)cc(O)c12")
0.948
>>> quantitative_readout("CN(C)[C@@H]1C(=O)C(C(N)=O)=C(O)[C@@]2(O)C(=O)C3=C(O)c4c(O)cccc4[C@@](C)(O)[C@H]3[C@H](O)[C@@H]12")
1.02
>>> quantitative_readout("CS(=O)(=O)Nc1ccc([N+](=O)[O-])cc1Oc1ccccc1")
0.975
>>> quantitative_readout("NC(=O)NC(=O)Cc1ccccc1")
1.02

Please fill in: normalized growth reported for CN(C)CCCN1c2ccccc2Sc2ccc(Cl)cc21 = 0.11

Entry under test: Nc1ccc(S(=O)(=O)NC(=O)c2ccccc2)cc1 . Its normalized growth was 0.995

Notebook: CN(C)CCCN1c2ccccc2CCc2ccccc21 , normalized growth read as 0.994

For reference, reported normalized growth for C[C@H]1c2cccc(O)c2C(O)=C2C(=O)[C@]3(O)C(O)=C(C(N)=O)C(=O)[C@@H](N(C)C)[C@@H]3[C@@H](O)[C@@H]21 stands at 0.974

The measured normalized growth associated with CCC(C)[C@H]1O[C@]2(C=C[C@@H]1C)C[C@@H]1C[C@@H](C/C=C(\C)[C@@H](OC3C[C@H](OC)C(O[C@H]4C[C@H](OC)[C@@H](O)[C@H](C)O4)[C@H](C)O3)[C@@H](C)/C=C/C=C3\CO[C@@H]4[C@H](O)C(C)=C[C@@H](C(=O)O1)[C@]34O)O2 (some centres undefined) reads 0.983
